Test system: rabbit reticulocyte lysates (RRLs)
Assay: Translation efficiency of capped luciferase mRNA in RRL
Format: biochemical
Conditions: luciferase mRNA capped with the analog, normalized to m^7GpppG-capped mRNA
PARAMETER: relative translation efficiency

CO[C@@H]1[C@H](O)[C@@H](COP(=O)(O)OP(=O)([O-])OP(=O)(O)OP(=O)(O)OC[C@H]2O[C@@H](n3cnc4c(=O)[nH]c(N)nc43)[C@H](O)[C@@H]2O)O[C@H]1n1c[n+](C)c2c(O)nc(N)nc21: 1.79
CO[C@@H]1[C@H](O)[C@@H](COP(=O)([O-])OP(O)(=S)OP(=O)(O)OC[C@H]2O[C@@H](n3cnc4c(=O)[nH]c(N)nc43)[C@H](O)[C@@H]2O)O[C@H]1[n+]1cn(C)c2c(=O)[nH]c(N)nc21 (single isomer, unassigned) [m2^7,2′-OGppSpG D1, m2^7,2′-OGppSpG]: 2.07

(P) Cn1c[n+]([C@@H]2O[C@H](COP(=O)(O)OP(=O)([O-])OP(=O)(O)OC[C@H]3O[C@@H](n4cnc5c(=O)[nH]c(N)nc54)[C@H](O)[C@@H]3O)[C@@H](O)[C@H]2O)c2nc(N)[nH]c(=O)c21
(Q) COC1C(O)[C@@H](COP(=O)(O)OP(=O)([S-])OP(=O)(O)OP(=O)(O)OC[C@H]2O[C@@H](n3cnc4c(=O)[nH]c(N)nc43)C(O)C2O)O[C@H]1n1c[n+](C)c2c(O)nc(N)nc21 (mixture of isomers)
# query: argmin of relative translation efficiency over P and Q Give the label under which the chosen entry appears.
P
(P: 1, Q: 2.51)

----------
Tested on: rabbit reticulocyte lysates (RRLs)
Assay: Translation efficiency of capped luciferase mRNA in RRL
Format: biochemical
Settings: luciferase mRNA capped with the analog, normalized to m^7GpppG-capped mRNA
PARAMETER: relative translation efficiency

(A) Nc1nc2c(ncn2[C@@H]2O[C@H](COP(=O)(O)OP(=O)(O)OP(=O)(O)OC[C@H]3O[C@@H](n4cnc5c(N)ncnc54)[C@H](O)[C@@H]3O)[C@@H](O)[C@H]2O)c(=O)[nH]1 [ApppG]
(B) CO[C@H]1[C@@H](O)[C@H]([n+]2cn(C)c3c(=O)[nH]c(N)nc32)O[C@@H]1COP(=O)([O-])OP(=O)(O)OP(=O)(O)OC[C@H]1O[C@@H](n2cnc3c(=O)[nH]c(N)nc32)[C@H](O)[C@@H]1O [m2^7,3′-OGpppG]
Short answer wanted: higher relative translation efficiency, A or B ? Give the label under which the chosen entry appears.
B

----------
System: S. pombe Dcp1/2 complex
Assay: Decapping assay of short capped transcripts with SpDcp1/2
Type: biochemical, Schizosaccharomyces pombe
Conditions: 34 nt RNA capped with the analog, SpDcp1/2 complex, 30°C, 15 min
Form field: Decapping % 15 min (one value per entry).
Reply numerically in %, unit not repeated.

See these solved cases before continuing.
CO[C@@H]1[C@H](O)[C@@H](COP(=O)(O)OP(=O)([O-])OP(=O)(O)OC[C@H]2O[C@@H](n3cnc4c(=O)[nH]c(N)nc43)[C@H](O)[C@@H]2O)O[C@H]1n1c[n+](C)c2c(O)nc(N)nc21: 78.6
CO[C@@H]1[C@H](O)[C@@H](COP(=O)([O-])OP(O)(=S)OP(=O)(O)OC[C@H]2O[C@@H](n3cnc4c(=O)[nH]c(N)nc43)[C@H](O)[C@@H]2O)O[C@H]1[n+]1cn(C)c2c(=O)[nH]c(N)nc21 (single isomer, unassigned) [m2^7,2′-OGppSpG D1, m2^7,2′-OGppSpG]: 56.1
CO[C@@H]1[C@H](O)[C@@H](COP(=O)([O-])OP(O)(=S)OP(=O)(O)OC[C@H]2O[C@@H](n3cnc4c(=O)[nH]c(N)nc43)[C@H](O)[C@@H]2O)O[C@H]1[n+]1cn(C)c2c(=O)[nH]c(N)nc21 (single isomer, unassigned) [m2^7,2′-OGppSpG D2, m2^7,2′-OGppSpG]: 51.4
COC1C(O)[C@@H](COP(=O)(O)OP(=O)([S-])OP(=O)(O)OP(=O)(O)OC[C@H]2O[C@@H](n3cnc4c(=O)[nH]c(N)nc43)C(O)C2O)O[C@H]1n1c[n+](C)c2c(O)nc(N)nc21 (mixture of isomers): 65.6

# context switch: different compound, same Decapping % 15 min
I'd like to know its Decapping % 15 min. The compound in question is "CO[C@@H]1[C@H](O)[C@@H](COP(=O)(O)OP(=O)([O-])OP(=O)(O)OP(=O)(O)OC[C@H]2O[C@@H](n3cnc4c(=O)[nH]c(N)nc43)[C@H](O)[C@@H]2O)O[C@H]1n1c[n+](C)c2c(O)nc(N)nc21"
78.4

Value source: paper PMC5175369
